In this section, each of the binders is paired with its reported EC50, ELK-luciferase assay.
molecular target: beta-klotho; experiment: cell-based or functional assay
Number in pM, nothing else.

Tethered Molecule of two FGF21 G120C, P171G polypeptides (20 kDa PEG linker) (ligand, Cys 120 of the two chains joined by one 20 kDa PEG bis-maleimide) MHPIPDSSPLLQFGGQVRQRYLYTDDAQQTEAHLEIREDGTVGGAADQSPESLLQLKALKPGVIQILGVKTSRFLCQRPDGALYGSLHFDPEACSFRELLLEDGYNVYQSEAHGLPLHLPCNKSPHRDPAPRGPARFLPLPGLPPAPPEPPGILAPQPPDVGSSDPLSMVGGSQGRSPSYAS	510

Shift focus to the following entry.
Looking up Tethered Molecule of two FGF21 R175C, P171G polypeptides (20 kDa PEG linker) (ligand, Cys 175 of the two chains joined by one 20 kDa PEG bis-maleimide) MHPIPDSSPLLQFGGQVRQRYLYTDDAQQTEAHLEIREDGTVGGAADQSPESLLQLKALKPGVIQILGVKTSRFLCQRPDGALYGSLHFDPEACSFRELLLEDGYNVYQSEAHGLPLHLPGNKSPHRDPAPRGPARFLPLPGLPPAPPEPPGILAPQPPDVGSSDPLSMVGGSQGCSPSYAS , I found its EC50, ELK-luciferase assay recorded as 360
